Reference source for all entries: patent US20090252727A1

# measurementTarget: T1, human glucagon receptor (human, UniProt P47871 27-477)
# T1 construct: Cloned receptor expressed in 293HEK cells; also called human GluR; human GlucR
# T1 sequence (P47871 27-477): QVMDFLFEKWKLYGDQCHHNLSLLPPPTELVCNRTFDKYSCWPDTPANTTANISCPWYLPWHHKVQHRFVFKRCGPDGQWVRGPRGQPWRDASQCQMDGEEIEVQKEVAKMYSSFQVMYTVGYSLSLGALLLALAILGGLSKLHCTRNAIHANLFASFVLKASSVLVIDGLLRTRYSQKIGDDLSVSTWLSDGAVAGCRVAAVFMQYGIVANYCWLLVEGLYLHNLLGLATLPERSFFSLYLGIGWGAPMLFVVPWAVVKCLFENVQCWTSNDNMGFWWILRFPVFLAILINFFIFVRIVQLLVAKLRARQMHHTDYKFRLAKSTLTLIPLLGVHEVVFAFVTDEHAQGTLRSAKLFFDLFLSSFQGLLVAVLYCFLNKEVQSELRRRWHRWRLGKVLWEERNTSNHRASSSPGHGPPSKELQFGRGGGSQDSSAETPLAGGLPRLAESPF
# assayMethodText: competition with [125I]glucagon, SPA, membranes of 293HEK cells expressing the receptor
pKi: −log10 of the molar value.
Kindly state pKi for each of the entries shown.

Fab fragment of antibody example 4 (Fab4) (Fab, V domains shown, Expressed in E. coli; Fab = VL+CL and VH+CH1 (Fc absent); not shown: His tag) VH: QVQLQESGPGLVKPSETLSLTCTVSGDDITSGYHDWIRQPPGKGLEWIGYISYSGSTYYSPSLKSRVTISVDTSKNQFSLKLSSVTAADTAVYYCARPPGYYGFGPYALDYWGQGTLVTVSS VL: DIQMTQSPSSLSASVGDRVTITCSASSSVSYIHWYQQKPGKAPKLLIYTTSYLAHGVPSRFSGSGSGTDFTLTISSLQPEDFATYYCQQRSTLPPTFGGGTKVEIKR	> 7.30

Continue with the binder presented below.
Find the recorded pKi belonging to Antibody of example 7 (Ab7) (antibody, human IgG4 S228P, kappa, F234A L235A, V domains shown, Humanized full antibody with kappa light chain and modified human IgG4 Fc) VH: QVQLQESGPGLVKPSETLSLTCTVSGDDITSGYHEWIRQPPGKGLEWIGYISYSGSTSYSPSLKSRVTISVDTSKNQFSLKLSSVTAADTAVYYCARPPAYYGFGPYALDYWGQGTLVTVSS VL: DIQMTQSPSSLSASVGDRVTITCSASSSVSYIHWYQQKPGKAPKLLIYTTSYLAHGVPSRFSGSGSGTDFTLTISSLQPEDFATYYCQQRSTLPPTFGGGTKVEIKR and report it. > 7.30
